Entries and their IC50 values follow.
- TARGET: enzyme FAAH (Fatty Acid Amide Hydrolase) (Mus musculus, UniProt O08914)
- Construct: The membrane homogenates are prepared extemporaneously by homogenizing the tissues; from tissue; host or cells: mouse brain (minus the cerebellum), homogenate
- Sequence (O08914 whole entry): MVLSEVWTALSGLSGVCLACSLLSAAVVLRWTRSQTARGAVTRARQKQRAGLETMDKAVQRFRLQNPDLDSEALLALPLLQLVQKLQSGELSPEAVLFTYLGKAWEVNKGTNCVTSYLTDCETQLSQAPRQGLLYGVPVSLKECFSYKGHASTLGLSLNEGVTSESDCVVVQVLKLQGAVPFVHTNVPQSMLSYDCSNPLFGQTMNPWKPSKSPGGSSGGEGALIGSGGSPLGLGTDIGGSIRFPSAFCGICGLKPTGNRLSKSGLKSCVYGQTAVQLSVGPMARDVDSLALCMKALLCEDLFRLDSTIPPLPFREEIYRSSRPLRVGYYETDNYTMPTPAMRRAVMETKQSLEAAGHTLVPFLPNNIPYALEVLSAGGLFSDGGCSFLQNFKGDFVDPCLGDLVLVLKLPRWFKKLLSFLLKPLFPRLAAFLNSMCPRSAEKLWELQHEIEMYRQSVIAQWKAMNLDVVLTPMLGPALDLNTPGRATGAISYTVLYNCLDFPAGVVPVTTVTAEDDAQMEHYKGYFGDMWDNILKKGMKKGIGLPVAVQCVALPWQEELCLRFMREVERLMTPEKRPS
- PROTOCOL_NOTES: FAAH fluorescence enzymatic test, hydrolysis of AAMC (protocol 2)
- Assay type: biochemical
- CONDITION_CONTEXT: mouse brain homogenate, AAMC 10 μM, 20 mins preincubation at 25° C., 40 mins at 37° C., read-out: IC50 (concentration inhibiting 50% of the control enzymatic activity of FAAH)
Numeric only. Scale: nM

1) CNC(=O)c1cc(COC(=O)N2CC3(CC(Oc4ccc(-c5ccc(F)cc5)cc4)C3)C2)on1: 0.46

Turning now to a further record.
Ask | Lab note: enzyme FAAH (Fatty Acid Amide Hydrolase) (Mus musculus, UniProt O08914) assay, enter IC50 for CNC(=O)c1cc(COC(=O)N2CCC3(CC2)CC(Oc2ccc(-c4ccc(F)cc4)cc2)C3)on1 here
Reply | 1.7

---

- TARGET: enzyme FAAH (Fatty Acid Amide Hydrolase) (Mus musculus, UniProt O08914)
- Construct: The membrane homogenates are prepared extemporaneously by homogenizing the tissues; from tissue; host or cells: mouse brain (minus the cerebellum), homogenate
- PROTOCOL_NOTES: FAAH radio-enzymatic test, hydrolysis of [1-3H ethanolamine] anandamide (protocol 1)
- Format: biochemical
- CONDITION_CONTEXT: mouse brain membrane homogenate, anandamide 10 μM, 20 mins preincubation at 25° C., read-out: IC50 (concentration inhibiting 50% of the control enzymatic activity of FAAH)
IC50 values by entry
Respond numerically; units are nM and should not be typed.

1. CNC(=O)c1cc(COC(=O)N2CCC3(CC2)CC(Oc2cccc(-c4ccc(F)cc4)c2)C3)on1: 19
2. CNC(=O)c1cc(COC(=O)N2CCC3(CC(Oc4ccc(-c5ccc(F)cc5)cc4)C3)C2)on1 (single isomer, unassigned) [Compound 29]: 5.3
3. CNC(=O)c1cc(COC(=O)N2CCC3(CC(Oc4ccc(-c5ccc(F)cc5)cc4)C3)C2)on1 (single isomer, unassigned) [Compound 32]: 3

Ask | Output measured IC50 for this item: CNC(=O)c1cc(COC(=O)N2CCC3(CC(Oc4ccc(-c5ccc(F)cc5)cc4)C3)C2)on1 (single isomer, unassigned) [Compound 33]
Reply | 19
